All values here come from patent US9133148B2.

- experimentalTarget: Mouse brain MAGL (Mus musculus (Mouse), UniProt O35678)
- Sequence (O35678 whole entry): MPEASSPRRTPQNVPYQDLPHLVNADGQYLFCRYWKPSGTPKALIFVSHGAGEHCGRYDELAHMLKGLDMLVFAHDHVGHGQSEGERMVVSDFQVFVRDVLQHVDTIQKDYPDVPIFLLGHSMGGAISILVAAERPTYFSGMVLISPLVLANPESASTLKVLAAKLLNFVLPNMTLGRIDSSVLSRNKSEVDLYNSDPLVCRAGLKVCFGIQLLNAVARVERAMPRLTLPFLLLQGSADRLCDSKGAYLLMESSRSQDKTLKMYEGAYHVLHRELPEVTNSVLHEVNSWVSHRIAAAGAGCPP
- experiment: Mouse brain proteomes from inhibitor treated mice (oral gavage, ABPP of brain MAGL)
- Format: in vivo
- conditionContext: 5 mg/kg, 4 h following administration
measuredEndpoint: Mouse brain MAGL (% inhibition at 5 mg/kg, p.o.) (%)

[
  {
    "molecule": "O=C(OC(C(F)(F)F)C(F)(F)F)N1CCN(Cc2ccc(Cl)cc2N2CCN3CCC[C@@H]3C2)CC1",
    "recordedNumber": 50
  },
  {
    "molecule": "O=C(OC(C(F)(F)F)C(F)(F)F)N1CCN(Cc2ccc(-c3ccccc3)cc2C(=O)N2CCCC2)CC1 [Example 11y]",
    "recordedNumber": 75
  },
  {
    "molecule": "O=C(OC(C(F)(F)F)C(F)(F)F)N1CCN(Cc2cc(Cl)ccc2N2CCCC2)CC1",
    "recordedNumber": 75
  },
  {
    "molecule": "O=C(OC(C(F)(F)F)C(F)(F)F)N1CCN(Cc2ccc(Cl)cc2N2Cc3cccnc3C2)CC1",
    "recordedNumber": 25
  },
  {
    "molecule": "O=C(OC(C(F)(F)F)C(F)(F)F)N1CCN(Cc2ccc(Cl)cc2N2CCC3(CCOCC3)C2)CC1",
    "recordedNumber": 75
  },
  {
    "molecule": "CS(=O)(=O)N1CCN(c2cc(Cl)ccc2CN2CCN(C(=O)OC(C(F)(F)F)C(F)(F)F)CC2)CC1",
    "recordedNumber": 75
  },
  {
    "molecule": "O=C(OC(C(F)(F)F)C(F)(F)F)N1CCN(Cc2ccc(Cl)cc2N2CCC3(CCNC3=O)CC2)CC1",
    "recordedNumber": 75
  },
  {
    "molecule": "CC(C)n1cc(CN2CCN(C(=O)OC(C(F)(F)F)C(F)(F)F)CC2)c(-c2ccccc2Cl)n1 [Example 10i]",
    "recordedNumber": 75
  },
  {
    "molecule": "O=C(OC(C(F)(F)F)C(F)(F)F)N1CCN(Cc2ccc(Cl)cc2N2CCC2)CC1",
    "recordedNumber": 50
  },
  {
    "molecule": "O=C(OC(C(F)(F)F)C(F)(F)F)N1CCN(Cc2cccc(Cl)c2N2CCCC2)CC1",
    "recordedNumber": 75
  }
]
